test system: Human rhinovirus 1A; assay: Concentration required to reduce Rhino virus type 1A induced plaque formation in HeLa cell culture to 50% of control; assay type: functional; details: read-out: ID50 (the source's name)
pIC50: −log10 of the molar value.
Rule: yes (1) for pIC50 not less than 7, no (0) for anything less.

# compound, targetUnderTest, classification
rows = [
    ("C[S+]([O-])c1cnc2c(c1)CCC(c1ccc(Cl)c(Cl)c1)O2 (stereo not drawn)", "Human rhinovirus 1A", "no (0)"),
    ("Clc1ccc(C2C=Cc3cc(Cl)cnc3O2)cc1 (stereo not drawn)", "Human rhinovirus 1A", "no (0)"),
    ("Clc1ccc(C2CCc3cc(Cl)cnc3O2)cc1 (stereo not drawn)", "Human rhinovirus 1A", "no (0)"),
    ("Clc1ccc(C2C=Cc3cc(Br)cnc3O2)cc1Cl (stereo not drawn)", "Human rhinovirus 1A", "no (0)"),
    ("Clc1ccc(C2CCc3cc(Br)cnc3O2)cc1Cl (stereo not drawn)", "Human rhinovirus 1A", "yes (1)"),
    ("CCCCSc1cnc2c(c1)CCC(c1ccc(Cl)c(Cl)c1)O2 (stereo not drawn)", "Human rhinovirus 1A", "no (0)"),
    ("Brc1cnc2c(c1)C=CC(c1ccccc1)O2 (stereo not drawn)", "Human rhinovirus 1A", "no (0)"),
    ("Clc1ccc(C2CCc3cc(Br)cnc3O2)cc1 (stereo not drawn)", "Human rhinovirus 1A", "yes (1)"),
    ("Brc1cnc2c(c1)CCC(c1ccccc1)O2 (stereo not drawn)", "Human rhinovirus 1A", "no (0)"),
    ("CC1(c2ccc(Cl)c(Cl)c2)CCc2cc(Cl)cnc2O1 (stereo not drawn)", "Human rhinovirus 1A", "no (0)"),
]

---

test system: HeLa; assay: Lowest concentration at which the effect on HeLa cell colony formation became apparent.; type: functional, Homo sapiens
Parameter: CGI. Scope: all listed entries.
assayReadout: CGI (µM)

# molecule, assayReadout, reported
data = [
    ("Clc1ccc(C2CCc3cc(Br)cnc3O2)cc1Cl (centres undefined)", "CGI", 28),
    ("Clc1cnc2c(c1)CCC(c1ccc(Cl)c(Cl)c1)O2 (centres undefined)", "CGI", 16),
    ("CS(=O)(=O)c1cnc2c(c1)CCC(c1ccc(Cl)c(Cl)c1)O2 (centres undefined)", "CGI", 56),
    ("Clc1ccc(C2CCc3cc(Cl)cnc3O2)cc1 (centres undefined)", "CGI", 35),
]

---

system: Human rhinovirus sp.; test: Concentration required to reduce Rhino virus type 9 induced plaque formation in HeLa cell culture to 50% of control; format: functional; details: read-out: ID50 (the source's name)
Parameter: IC50. Scope: all listed entries.

# molecule, IC50 (nM)
measured = [
    ("C[S+]([O-])c1cnc2c(c1)CCC(c1ccc(Cl)c(Cl)c1)O2 (centres undefined)", 30),
    ("Clc1ccc(C2CCc3cc(Cl)cnc3O2)cc1 (centres undefined)", 640),
    ("CS(=O)(=O)c1cnc2c(c1)CCC(c1ccc(Cl)cc1)O2 (centres undefined)", 1420),
    ("Clc1ccc(C2CCc3cc(Br)cnc3O2)cc1 (centres undefined)", 30),
]

---

system: Human rhinovirus sp.; assay: Concentration required to reduce Rhino virus type 9 induced plaque formation in HeLa cell culture to 50% of control; format: functional; details: read-out: ID50 (the source's name)
pIC50: −log10 of the molar value.

# molecule, pIC50
data = [
    ("Clc1ccc(C2C=Cc3cc(Br)cnc3O2)cc1Cl (configuration not stated)", 6.96),
    ("Cc1ccc(C2CCc3cc(Br)cnc3O2)cc1 (configuration not stated)", 6.41),
    ("Brc1cnc2c(c1)CCC(c1ccccc1)O2 (configuration not stated)", 5.32),
    ("Clc1ccc(C2C=Cc3cc(Cl)cnc3O2)cc1 (configuration not stated)", 5.64),
    ("CS(=O)(=O)c1cnc2c(c1)CCC(c1ccc(Cl)c(Cl)c1)O2 (configuration not stated)", 6.85),
    ("Clc1ccc(C2CCc3cccnc3O2)cc1Cl (configuration not stated)", 5.66),
    ("CCCCSc1cnc2c(c1)CCC(c1ccc(Cl)c(Cl)c1)O2 (configuration not stated)", 5.20),
    ("Clc1ccc(C2=CCc3cc(Br)cnc3O2)cc1Cl", 6.23),
    ("CSc1cnc2c(c1)CCC(c1ccc(Cl)c(Cl)c1)O2 (configuration not stated)", 6.82),
    ("CC1(c2ccc(Cl)c(Cl)c2)CCc2cc(Cl)cnc2O1 (configuration not stated)", 6.24),
    ("Clc1ccc(C2CCc3cc(Br)cnc3O2)cc1Cl (configuration not stated)", 6.66),
    ("Clc1cnc2c(c1)CCC(c1ccc(Cl)c(Cl)c1)O2 (configuration not stated)", 6.54),
]
